# assayRemarks: Nuclear factor erythroid 2-related factor 2/antioxidant responsive element (Nrf2/ARE) small molecule agonists: luciferase reporter gene qHTS assay in human keratinocytes (AID 1919969); further: nearly all actives have a fitted effect of over 35% in size
# measurementConditions: KeratinoSens HaCaT ARE-luciferase, luminescence, 24 h; series mostly up to 92.4 µM
Results filed as inconclusive are left out. Calls of active or inactive are those of the source. The call rests on the fitted dose curve.
Possible outcomes: active, inactive

structure: C=CC(=O)OCCn1c(=O)n(CCOC(=O)C=C)c(=O)n(CCOC(=O)C=C)c1=O
categoryLabel: active
//
structure: Sc1nc2ccccc2s1
categoryLabel: active
//
structure: O=C1Nc2ccc(Cl)cc2[C@@](C#CC2CC2)(C(F)(F)F)O1
categoryLabel: inactive
//
structure: O=[N+]([O-])c1ccc(Cl)cc1Cl
categoryLabel: inactive

---

# assayRemarks: p53 small molecule agonists, cell-based qHTS assay with human liver microsomes: qHTS cell viability counter screen (AID 1963579); further: nearly all actives have a fitted effect of over 45% in size
# measurementConditions: p53RE-bla HCT-116 viability, ATP luminescence, 16 h, HLM; series mostly up to 66 µM
Records with an inconclusive call do not appear. Active and inactive are the calls of the source. Calls follow the shape of the full dose curve.

structure: OC[C@H]1O[C@@H](n2cnc3c(=S)nc[nH]c32)[C@H](O)[C@@H]1O
outcome: inactive
//
structure: Clc1cccc(-c2cc(Cl)cc(Cl)c2)c1
outcome: inactive
//
structure: Oc1ccc2c(c1)-c1ccccc1C2
outcome: inactive

---

# assayRemarks: p53 small molecule agonists, cell-based qHTS assay with rat liver microsomes: qHTS cell viability counter screen (AID 1963580); further: nearly all actives have a fitted effect of over 45% in size
# measurementConditions: p53RE-bla HCT-116 + rat microsomes, ATP viability, 16 h; series mostly up to 66 µM
Inconclusive results are not listed. Activity calls are given as the source filed them. Calls follow the shape of the full dose curve.
Outcomes: active, inactive

compound: Clc1ccc(C(Cn2ccnc2)OCc2ccc(Sc3ccccc3)cc2)c(Cl)c1 (configuration not stated)
categoryLabel: inactive
//
compound: CN(C)Cc1cc(C(C)(C)C)c(O)c(C(C)(C)C)c1
categoryLabel: inactive
//
compound: COc1cc2ncnc(Nc3ccc(F)c(Cl)c3)c2cc1OCCCN1CCOCC1
categoryLabel: inactive
//
compound: O/N=C/C=N/O
categoryLabel: inactive
//
compound: CC(C)N(C)C
categoryLabel: inactive
//
compound: CC(=O)c1ccc2c(c1)Cc1ccccc1-2
categoryLabel: inactive
//
compound: CCSCC
categoryLabel: inactive
//
compound: CCCCCC(CO)CCC (configuration not stated)
categoryLabel: inactive
//
compound: CC(C)=CCOc1ccc(/C=C/C(=O)c2ccc(OCC=C(C)C)cc2OCC(=O)O)cc1
categoryLabel: inactive
//
compound: Cc1ccc(Cl)c(N)c1Cl
categoryLabel: inactive
//
compound: O=C(O)COc1ccc2ccccc2c1
categoryLabel: inactive
//
compound: C[C@@H](N)C(=O)O
categoryLabel: inactive
//
compound: C=Cc1ccc(S(=O)(=O)O)cc1
categoryLabel: inactive
//
compound: CCOc1ccc2nc3cc(N)ccc3c(N)c2c1
categoryLabel: inactive
//
compound: O=C(Cl)c1ccc(F)c(Cl)c1
categoryLabel: inactive
//
compound: Cc1ccc([N+](=O)[O-])cc1Cl
categoryLabel: inactive
//
compound: CC[C@]12CCCN3CCc4c(n(c5ccccc45)C(=O)C1)[C@@H]32
categoryLabel: inactive
//
compound: O=C(NO)C1(NS(=O)(=O)c2ccc(Oc3ccc(F)cc3)cc2)CCOCC1
categoryLabel: inactive
//
compound: Cc1onc(-c2c(Cl)cccc2Cl)c1C(=O)Cl
categoryLabel: inactive
//
compound: CCc1cc(SCc2sc(-c3ccc(C(F)(F)F)cc3)nc2CN2CCN(c3ccc(OC)cc3)CC2)ccc1OCC(=O)O
categoryLabel: active
//
compound: COCC(=O)O[C@]1(CCN(C)CCCc2nc3ccccc3[nH]2)CCc2cc(F)ccc2[C@@H]1C(C)C
categoryLabel: inactive
//
compound: CCCCCCCCCCOC(=O)c1ccccc1C(=O)OCCCCCCCC
categoryLabel: inactive
//
compound: CCCCN
categoryLabel: inactive
//
compound: CCN[C@H]1C[C@H](C)S(=O)(=O)c2sc(S(N)(=O)=O)cc21
categoryLabel: inactive
//
compound: COCCc1ccc(OCC2CO2)cc1 (configuration not stated)
categoryLabel: inactive
//
compound: O=S(c1cc(Cl)cc(Cl)c1O)c1cc(Cl)cc(Cl)c1O
categoryLabel: inactive
//
compound: O=S(=O)(O)c1cc(S(=O)(=O)O)c2c(N=Nc3ccccc3)c(O)ccc2c1
categoryLabel: inactive
//
compound: NNc1nc(-c2ccccc2)cs1
categoryLabel: inactive
//
compound: C=CC(=O)N1CCOCC1
categoryLabel: inactive
//
compound: Cn1c(=O)c2c(ncn2CC2OCCO2)n(C)c1=O
categoryLabel: inactive
//
compound: CCCCCCCCCCC[C@@H](C[C@@H]1OC(=O)[C@H]1CCCCCC)OC(=O)[C@H](CC(C)C)NC=O
categoryLabel: inactive
//
compound: Nc1ccccc1Nc1ccccc1
categoryLabel: inactive
//
compound: Cc1ccc2c(Br)cc(Br)c(O)c2n1
categoryLabel: inactive
//
compound: COC(=O)C(C)=O
categoryLabel: inactive
//
compound: SCCOCCOCCS
categoryLabel: inactive
//
compound: CCCNC(C)C(=O)Nc1c(C)csc1C(=O)OC (configuration not stated)
categoryLabel: inactive
//
compound: CN1C(C(=O)Nc2ccccn2)=C(O)c2sccc2S1(=O)=O
categoryLabel: inactive
//
compound: Nc1ccn([C@@H]2O[C@H](CO)[C@@H](O)[C@@H]2O)c(=O)n1
categoryLabel: inactive
//
compound: COC(C)(C)CC(C)=O
categoryLabel: inactive
//
compound: CCN(Cc1cccc(S(=O)(=O)O)c1)c1ccc(C(=C2C=CC(=[N+](CC)Cc3cccc(S(=O)(=O)[O-])c3)C=C2)c2ccccc2)cc1
categoryLabel: inactive
//
compound: CC/C=C/CCCCCCCCCCOC(C)=O
categoryLabel: inactive
//
compound: CC(C)(C)c1ccc(-c2ccc(C(C)(C)C)cc2)cc1
categoryLabel: inactive

---

# experimentalSystem: 5-hydroxytryptamine receptor 2A (Homo sapiens)
# assayRemarks: 5-hydroxytryptamine receptor 2A (HTR2A) small molecule antagonists, cell-based qHTS assay (AID 1963586); further: nearly all actives have a fitted effect of over 45% in size
# measurementConditions: HTR2A-CHO cells, DOI-induced calcium flux, fluorescence; series mostly up to 61.5 µM
Inconclusive results are not listed. Activity calls are given as the source filed them. Calls follow the shape of the full dose curve.
Outcomes: true (1) (active), false (0) (inactive)

structure: N#CSCSc1nc2ccccc2s1
experimentalSystem: 5-hydroxytryptamine receptor 2A (Homo sapiens)
categoryLabel: false (0)
--
structure: CCCCOCCOCCOCCOCCO
experimentalSystem: 5-hydroxytryptamine receptor 2A (Homo sapiens)
categoryLabel: false (0)
--
structure: c1ccc(C[n+]2cccc3ccccc32)cc1
experimentalSystem: 5-hydroxytryptamine receptor 2A (Homo sapiens)
categoryLabel: false (0)
--
structure: NC(=O)Nc1nc2ccccc2[nH]1
experimentalSystem: 5-hydroxytryptamine receptor 2A (Homo sapiens)
categoryLabel: false (0)
--
structure: CN(C)Cc1cc(C(C)(C)C)c(O)c(C(C)(C)C)c1
experimentalSystem: 5-hydroxytryptamine receptor 2A (Homo sapiens)
categoryLabel: true (1)
--
structure: CCOC(=O)c1ccccc1OC
experimentalSystem: 5-hydroxytryptamine receptor 2A (Homo sapiens)
categoryLabel: false (0)
--
structure: CCCCCCCC/C=C\CCCCCCCC(=O)OCCO
experimentalSystem: 5-hydroxytryptamine receptor 2A (Homo sapiens)
categoryLabel: false (0)
--
structure: c1ccc(-c2ccccc2-c2ccccc2)cc1
experimentalSystem: 5-hydroxytryptamine receptor 2A (Homo sapiens)
categoryLabel: false (0)
--
structure: O=C(NO)C1(NS(=O)(=O)c2ccc(Oc3ccc(F)cc3)cc2)CCOCC1
experimentalSystem: 5-hydroxytryptamine receptor 2A (Homo sapiens)
categoryLabel: false (0)
--
structure: Nc1ccc2ccccc2c1S(=O)(=O)O
experimentalSystem: 5-hydroxytryptamine receptor 2A (Homo sapiens)
categoryLabel: false (0)
--
structure: O=C(O)/C=C/c1ccc(O)c(O)c1
experimentalSystem: 5-hydroxytryptamine receptor 2A (Homo sapiens)
categoryLabel: false (0)
--
structure: Cc1c(-c2cccnc2)c2ccccc2n1CCCCC(=O)O
experimentalSystem: 5-hydroxytryptamine receptor 2A (Homo sapiens)
categoryLabel: false (0)
--
structure: CCOc1ccc(N=Nc2ccc(/C=C/c3ccc(N=Nc4ccc(OCC)cc4)cc3S(=O)(=O)O)c(S(=O)(=O)O)c2)cc1
experimentalSystem: 5-hydroxytryptamine receptor 2A (Homo sapiens)
categoryLabel: false (0)
--
structure: Oc1ccccc1F
experimentalSystem: 5-hydroxytryptamine receptor 2A (Homo sapiens)
categoryLabel: false (0)
--
structure: CC(C)(COC(=O)c1ccccc1)COC(=O)c1ccccc1
experimentalSystem: 5-hydroxytryptamine receptor 2A (Homo sapiens)
categoryLabel: false (0)
--
structure: CCOC(=O)COc1ccc2c(C)c(CCN(CC)CC)c(=O)oc2c1Cl
experimentalSystem: 5-hydroxytryptamine receptor 2A (Homo sapiens)
categoryLabel: false (0)
--
structure: CCCCCCCCCCCC(=O)OCC
experimentalSystem: 5-hydroxytryptamine receptor 2A (Homo sapiens)
categoryLabel: false (0)
--
structure: O=C1NCC2(CCN(CCc3ccccc3)CC2)O1
experimentalSystem: 5-hydroxytryptamine receptor 2A (Homo sapiens)
categoryLabel: false (0)
--
structure: Cn1cc(C(=O)[C@@H]2CCc3nc[nH]c3C2)c2ccccc21
experimentalSystem: 5-hydroxytryptamine receptor 2A (Homo sapiens)
categoryLabel: false (0)
